settings: in n-butanol, 308.85 K
readout-name: solubility (mole fraction)

In [3]: df
Out[3]:
                               entry_smiles                readout_name  endpoint_value
0  C[C@@H](O[C@H]1OCCN(Cc2n[nH]c(=O)[nH]2)[C@H]1c1ccc(F)cc1)c1cc(C(F)(F)F)cc(C(F)(F)F)c1  solubility (mole fraction)         0.00258

---

conditions: in n-propanol, 283.75 K
readout-name: solubility (mole fraction)

>>> df
                               entry_smiles                readout_name  endpoint_value
0  C[C@@H](O[C@H]1OCCN(Cc2n[nH]c(=O)[nH]2)[C@H]1c1ccc(F)cc1)c1cc(C(F)(F)F)cc(C(F)(F)F)c1  solubility (mole fraction)         0.00127

---

conditions: in n-propanol, 314.35 K
readout-name: solubility (mole fraction)

                               entry_smiles                readout_name  endpoint_value
0  C[C@@H](O[C@H]1OCCN(Cc2n[nH]c(=O)[nH]2)[C@H]1c1ccc(F)cc1)c1cc(C(F)(F)F)cc(C(F)(F)F)c1  solubility (mole fraction)         0.00331

---

settings: in acetone, 305.65 K
readout-name: solubility (mole fraction)

In [3]: df
Out[3]:
                               entry_smiles  endpoint_value
0  C[C@@H](O[C@H]1OCCN(Cc2n[nH]c(=O)[nH]2)[C@H]1c1ccc(F)cc1)c1cc(C(F)(F)F)cc(C(F)(F)F)c1         0.00808

---

details: in n-butanol, 285.45 K
readout-name: solubility (mole fraction)

>>> df
                               entry_smiles                readout_name  endpoint_value
0  C[C@@H](O[C@H]1OCCN(Cc2n[nH]c(=O)[nH]2)[C@H]1c1ccc(F)cc1)c1cc(C(F)(F)F)cc(C(F)(F)F)c1  solubility (mole fraction)         0.00115

---

conditions: in acetone, 284.75 K
readout-name: solubility (mole fraction)

>>> print(df.to_string())
                               entry_smiles  endpoint_value
0  C[C@@H](O[C@H]1OCCN(Cc2n[nH]c(=O)[nH]2)[C@H]1c1ccc(F)cc1)c1cc(C(F)(F)F)cc(C(F)(F)F)c1         0.00512
